- Tested on: KM12
- PROCEDURE_TEXT: NCI tumour cell line growth inhibition, 48 h
Active and inactive are the calls of the source. Rule as the data show it: active = GI50 up to about 1.1 µM and inactive = higher.
Tick one outcome: 1 = active, 0 = inactive

Some solved cases for reference:
{"COMPOUND": "Clc1ccc(C2=Nc3ccccc3SC(c3cccs3)C2)cc1 (configuration not stated)", "CAT": 0}
{"COMPOUND": "CNCCCNc1c2ccccc2nc2cccc([N+](=O)[O-])c12", "CAT": 1}
{"COMPOUND": "N=C(N)N/N=C(/CC1OC(=O)c2ccccc21)c1ccc2ccccc2c1 (configuration not stated)", "CAT": 0}
{"COMPOUND": "CCOc1ccccc1NC(=O)/C=C1\\NC(=O)CS1", "CAT": 0}

Fill in: this test's call for CC(=O)CCCCO is ___ 0

Fill in: this test's call for O=c1c2ccccc2c2ccccc2c(=O)n1-c1cc2c3ccccc3ccc2c2ccccc12 is ___ 0

Fill in: this test's call for CCC1c2cc3n(c(=O)c2COC1O)Cc1c-3nc2ccccc2c1Cl (configuration not stated) is ___ 0

----------
Listing of entries alongside the reported GI50.
- Tested on: OVCAR-3
- PROCEDURE_TEXT: NCI tumour cell line growth inhibition, 48 h
Activity calls are given as the source filed them. Cut-off read from the data, not from the text of the source: active = GI50 up to about 1.1 µM and inactive = higher.

{"COMPOUND": "O=C(Nc1sccc1S(=O)(=O)c1ccc(Cl)cc1)c1ccc(F)cc1F", "GI50": "37.4 µM (inactive)"}
{"COMPOUND": "O=c1c2cc(Br)ccc2n(C2OC(CO)C(O)C(O)C2O)c(=S)n1-c1ccccc1 (centres undefined)", "GI50": "> 100 µM (inactive)"}
{"COMPOUND": "CCOC1c2nc3ccccc3nc2-c2ccccc2N1C(C)=O (centres undefined)", "GI50": "> 100 µM (inactive)"}
{"COMPOUND": "CCn1sc2ccccc2c1=O", "GI50": "12.9 µM (inactive)"}
{"COMPOUND": "CC(=O)OC[C@H]1O[C@@H](O[C@H]2[C@H](OC(C)=O)C=CO[C@@H]2COC(C)=O)C(OC(C)=O)[C@H]2OC(C)(C)O[C@H]21 (some centres undefined)", "GI50": "> 100 µM (inactive)"}

Which measured GI50 value corresponds to COc1ccc2c(C(=O)c3c(C)n(CCN4CCOCC4)c4ccccc34)cccc2c1 ? 12.1 µM (inactive)

Which measured GI50 value corresponds to COC(=O)Cc1nn2c(nc1=O)sc1ccc3ccccc3c12 ? > 100 µM (inactive)

Which measured GI50 value corresponds to O=C(/C=C/c1ccc[nH]1)c1ccccc1 ? > 100 µM (inactive)

Which measured GI50 value corresponds to Cc1c(OCc2cccc3ccccc23)ccc2c(=O)cc(SCCN3CCOCC3)oc12 ? > 100 µM (inactive)

Which measured GI50 value corresponds to N/N=C1\C(OC(=O)Nc2ccccc2)=Nc2ccccc21 ? 11.2 µM (inactive)

Which measured GI50 value corresponds to Nc1ccccc1C(=O)CCc1c[nH]c2ccccc12 ? > 100 µM (inactive)

Which measured GI50 value corresponds to O=c1oc2ccccc2cc1-c1cc2ccccn2c1 ? > 100 µM (inactive)

Which measured GI50 value corresponds to Nc1ccc(C(=O)NN2C(=O)C(Cl)C2c2ccc([N+](=O)[O-])cc2)cc1 (centres undefined) ? 3.71 µM (inactive)

Which measured GI50 value corresponds to Cc1cccc(/N=N/c2c(C)nn(C(=O)CC(=O)Nc3ccccc3)c2C)c1 ? > 100 µM (inactive)

----------
Listing of entries alongside the reported GI50.
- Tested on: UACC-257
- PROCEDURE_TEXT: NCI tumour cell line growth inhibition, 48 h
The source made the active and inactive calls. Rule as the data show it: active = GI50 up to about 1.1 µM and inactive = higher.

Some compounds with recorded GI50:
{"COMPOUND": "CC[C@@H](C(=O)[C@@H](C)[C@@H](O)[C@H](C)CCc1ccc(C)c(O)c1C(=O)O)[C@H]1O[C@](CC)([C@H]2CC[C@](O)(CC)[C@H](C)O2)C[C@@H]1C [LASALOCID A SODIUM]", "TARGET_OF_ASSAY": "UACC-257", "GI50": "2.99 µM (inactive)"}
{"COMPOUND": "COC(=O)c1c(O)ccc2c1c1cc3ccccc3cc1n2Cc1cc(OC)cc(OC)c1", "TARGET_OF_ASSAY": "UACC-257", "GI50": "9.73 µM (inactive)"}
{"COMPOUND": "COc1ccc(Nc2nc3cc(C(F)(F)F)ccc3n3cccc23)cc1OC", "TARGET_OF_ASSAY": "UACC-257", "GI50": "17.5 µM (inactive)"}
{"COMPOUND": "CCCSc1ccc2[nH]c(N3C(=O)/C(=C/c4ccccc4)N=C3c3ccccc3)cc2c1", "TARGET_OF_ASSAY": "UACC-257", "GI50": "17 µM (inactive)"}

Which measured GI50 value corresponds to COc1ncc(C#CC(=O)c2ccccc2)c(OC)n1 ? 5.64 µM (inactive)

Which measured GI50 value corresponds to COC(=O)[C@]12CCC(=O)N1[C@H](C(=O)O)Cc1c2[nH]c2ccccc12 ? > 100 µM (inactive)

Which measured GI50 value corresponds to CSc1nc(C#N)c(N)n1C ? > 100 µM (inactive)

----------
- Tested on: Malme-3M
- PROCEDURE_TEXT: NCI tumour cell line growth inhibition, 48 h
Active and inactive are the calls of the source. Cut-off read from the data, not from the text of the source: active = GI50 up to about 1.1 µM and inactive = higher.
Listing of entries alongside the reported GI50.

{"COMPOUND": "COc1cc(CNC(=S)CCCCCCCCCCC(C)C)ccc1O", "GI50": "> 100 µM (inactive)"}

Which measured GI50 value corresponds to CCCCC1c2c([nH]c3ccccc23)C2C(=O)N(c3ccc(OC)cc3)C(=O)C2C1CCC (centres undefined) ? 4.44 µM (inactive)

Which measured GI50 value corresponds to O=C(C[N+]12CN3CN(CN(C3)C1)C2)c1ccc(-c2ccccc2)cc1 ? 21.3 µM (inactive)

Which measured GI50 value corresponds to C/C(=N\NC(=S)NC(C)C)c1nc2cccnc2[nH]1 ? 33.9 µM (inactive)

Which measured GI50 value corresponds to O=c1c2ccccc2c2ccccc2c(=O)n1-c1cc2c3ccccc3ccc2c2ccccc12 ? > 100 µM (inactive)

Which measured GI50 value corresponds to O=S(=O)(Nc1nc2ccccc2nc1Nc1cccc2ccccc12)c1ccccc1 ? 4.48 µM (inactive)

Which measured GI50 value corresponds to CCNC(=S)N/N=C(\C)c1cccc(C)n1 ? 2.39 µM (inactive)

Which measured GI50 value corresponds to COc1cc(-c2cc(=O)c3c(O)c(OC)c(OC)c(OC)c3o2)ccc1O ? 28.7 µM (inactive)

Which measured GI50 value corresponds to CCOC(=O)C1(C(=O)OCC)CCC(C(OC)OC)C(CC(=O)OC)C1 (centres undefined) ? > 10 µM (inactive)

Which measured GI50 value corresponds to c1ccc(-c2nnc(SCc3c[nH]c4ccccc34)n2-c2ccccc2)cc1 ? > 100 µM (inactive)

Which measured GI50 value corresponds to COC(O)C(=O)c1c2c(cc3c1CCC3)CCC2 (centres undefined) ? > 100 µM (inactive)

Which measured GI50 value corresponds to CCCN(CCC)C(=O)c1c(N2CCN(C)CC2)c2cccnc2n2c(C)cnc12 ? > 100 µM (inactive)

Which measured GI50 value corresponds to O=c1[nH]nc(-c2ccc3ccccc3c2)[nH]1 ? > 100 µM (inactive)

Which measured GI50 value corresponds to S=C(NN=C1NCCCCN1)Nc1ccc(Cl)cc1 ? 17.1 µM (inactive)

Which measured GI50 value corresponds to O=[N+]([O-])c1ccc2c(c1)C1=C(CO2)Cc2ccccc2O1 ? 26.4 µM (inactive)

Which measured GI50 value corresponds to Cc1c(C(=O)Nc2ccc(Cl)c(C(F)(F)F)c2)oc2cc(O)ccc2/c1=N\NC(N)=S ? > 100 µM (inactive)

----------
- System: Hs-578T
- PROCEDURE_TEXT: NCI tumour cell line growth inhibition, 48 h
Activity calls are given as the source filed them. No stated cut-off is given here; in the data, active = GI50 up to about 1.1 µM and inactive = higher.
Tick one outcome: active, inactive

Some solved cases for reference:
{"MOLECULE": "O=C(c1ccccc1)N1N=C(C(F)(F)F)CC1(O)C(F)(F)F (configuration not stated)", "CAT": "inactive"}
{"MOLECULE": "Cc1ccccc1NC(=O)/C(C#N)=N\\Nc1[nH]cnc1C(N)=O", "CAT": "inactive"}
{"MOLECULE": "S=C(Nc1ccccc1)c1ccc(CN2CCCCC2)s1", "CAT": "inactive"}
{"MOLECULE": "CCn1sc2ccccc2c1=O", "CAT": "inactive"}
{"MOLECULE": "Cc1ccc2c(c1)nc(N)n[n+]2[O-]", "CAT": "inactive"}

Fill in: this test's call for Cc1cc2c(SCc3ccccc3Cl)nc(N)nc2nc1C is ___ inactive

Fill in: this test's call for CN(C(=O)C12C3(C(=O)O)C4C5(C(=O)O)C3C1(C(=O)O)C5C42C(=O)O)C(C)(C)C (configuration not stated) is ___ inactive

Fill in: this test's call for O=C(C[N+]12CN3CN(CN(C3)C1)C2)c1ccc(-c2ccccc2)cc1 is ___ inactive

Fill in: this test's call for CC1OC(OC2C(O[C@H]3CC[C@@]4(C)C(=CC[C@H]5[C@@H]6C[C@@H]7O[C@]8(CC[C@@H](C)CO8)[C@@H](C)[C@@H]7[C@@]6(C)CC[C@@H]54)C3)OC(CO)C(O)C2OC2OC(CO)C(O)C(O)C2O)C(O)C(O)C1O (some centres not stated) is ___ inactive

Fill in: this test's call for CC1CC(N2CCOCC2)=Nc2ccccc2N1Cc1ccccc1 (configuration not stated) is ___ inactive

Fill in: this test's call for c1ccc2[nH]c(-c3cscn3)nc2c1 is ___ inactive

Fill in: this test's call for NC(=O)NC(=O)c1cccc(NC(=O)CI)c1 is ___ active

Fill in: this test's call for CCCCCCCCC[C@@H]1C[C@@H]2CCC3C(C(=O)OC)=C(C)N=C(N1)N32 (some centres not stated) is ___ inactive

Recorded values, source ChEMBL document CHEMBL1201862.
